# Test system: FLX1 + dox-induced PRKAR1A G325D
# Experiment summary: difference in log2 fold change of viability vs plate median (dox-induced PRKAR1A G325D minus uninduced); higher = compound less effective when PKA is inhibited
# Condition description: concentration: not stated (2 or 5 uM); 5 days
Counter-ions that a name gives are not always drawn.
Metric: difference in log2 fold change of viability
Answers are plain numbers.

Consider the reported difference in log2 fold change of viability for these molecules:
1. CNC(=O)c1ccc(C)c(-n2c(C)cc(OCc3ccc(F)cc3F)c(Br)c2=O)c1	0.455
2. CCc1cncnc1N1CCN(Cc2nc3ccc(C(F)(F)F)cc3[nH]2)CC1	-1.55
3. CCCCCCCCc1ccc(CCC(N)(CO)CO)cc1 [Fingolimod (FTY720) HCl]	0.301
4. COc1cc(Nc2ncc(F)c(Nc3ccc4c(n3)NC(=O)C(C)(C)O4)n2)cc(OC)c1OC	-0.353
5. CC[C@H](Nc1ncnc2[nH]cnc12)c1nc2cccc(F)c2c(=O)n1-c1ccccc1	0.00653

Next molecule, difference in log2 fold change of viability to be filled in.
In: Name the value of difference in log2 fold change of viability reported for C[S+]([O-])c1ccc(-c2nc(-c3ccc(F)cc3)c(-c3ccncc3)[nH]2)cc1 (stereo unspecified) when tested on FLX1 + dox-induced PRKAR1A G325D.
Out: -0.00802
